B1: VH:VL chains; a variant is named by its letters at X, in order (parent)
chain 1: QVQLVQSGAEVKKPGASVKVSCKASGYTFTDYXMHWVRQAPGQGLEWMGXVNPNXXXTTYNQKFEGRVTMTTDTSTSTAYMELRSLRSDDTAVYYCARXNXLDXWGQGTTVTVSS
chain 2: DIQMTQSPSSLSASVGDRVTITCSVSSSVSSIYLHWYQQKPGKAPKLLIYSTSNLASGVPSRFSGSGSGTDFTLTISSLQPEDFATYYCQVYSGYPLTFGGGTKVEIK

variants of: B1; experiment: yeast display scFab, FACS + sequencing; settings: with MET
The other results are listed elsewhere or left out. How many sequences the whole screen found active is unknown.
QUANTITY NAME: antigen binding call

VARIANT ID | MEASURED
YRTKGAAD | binds
DTTGSSGV | no binding
FKGEGAAD | no binding
STAESDVA | no binding
YTGEDAVA | no binding
YRGRGFVA | binds

Hi, could you look up antigen binding call for each item in my list?
1. VEKEGDWY
2. AGGENDGD
3. DGGRGDGA
4. VGGTSDGD
5. YKAEDVGD
6. VTGEDSGV
7. YRGKASWD
8. FRGRGFVA

1. no binding
2. no binding
3. no binding
4. no binding
5. no binding
6. no binding
7. binds
8. no binding
